Measured target: BMAL1 (Homo sapiens, UniProt O00327)
Sequence (O00327 338-449): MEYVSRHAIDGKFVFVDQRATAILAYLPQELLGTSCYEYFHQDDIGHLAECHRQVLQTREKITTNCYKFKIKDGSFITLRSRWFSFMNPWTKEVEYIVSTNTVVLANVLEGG
Set-up: PASB domain (residues 338–449); Protein thermal shift (PTS) fragment screen on recombinant human BMAL1(PASB), shift of melting temperature
Condition info: dTmB; binder
Label Condition met when Bmal1(PASB) dTmB >= -0.2 °C; otherwise Condition not met.

# example entries with known answers
>>> label_value("COc1ccc2c(c1)CCCC2")
"Condition not met"
>>> label_value("O=C(O)Cc1cccs1")
"Condition met"
>>> label_value("NC(=O)[C@H](N)c1ccccc1")
"Condition not met"
>>> label_value("c1ccc2c(c1)CCCN2")
"Condition met"
>>> label_value("CCOc1ccccn1")
"Condition met"
>>> label_value("NS(=O)(=O)c1cc(C(=O)O)ccc1Cl")
"Condition met"

Query block: Decide: is the reported value of Bmal1(PASB) dTmB for "NC(=O)Cc1cccs1" equal to or greater than -0.2 °C?
Result block: Condition not met

Query block: Decide: is the reported value of Bmal1(PASB) dTmB for "O=C1COc2ccccc21" equal to or greater than -0.2 °C?
Result block: Condition met

Query block: Decide: is the reported value of Bmal1(PASB) dTmB for "c1ccc(N2CCNCC2)nc1" equal to or greater than -0.2 °C?
Result block: Condition not met

Query block: Decide: is the reported value of Bmal1(PASB) dTmB for "NS(=O)(=O)c1ccc(Cl)cc1" equal to or greater than -0.2 °C?
Result block: Condition not met

###

Measured target: BMAL1 (Homo sapiens, UniProt O00327)
Design: PASB domain (residues 338–449); Protein thermal shift (PTS) fragment screen on recombinant human BMAL1(PASB), shift of melting temperature
Condition info: dTmB; binder
Class field: derived from Bmal1(PASB) dTmB; ranges Low = under -0.5 °C, Mid = from -0.5 °C up to 0.01 °C, High = 0.01 °C and over

>>> label_value("CS(=O)(=O)NC(Cc1ccccc1)C(=O)O (centres unmarked)")
"High"

Query block: Which category fits this record: "OCCn1ccnc1"
Result block: High

Query block: Which category fits this record: "NC1=NCCN1"
Result block: Mid

Query block: Which category fits this record: "COC(=O)C1=C(C)NC(C)=C(C(=O)OC)C1"
Result block: Low

Query block: Which category fits this record: "O=c1[nH]nc(Cc2ccccc2)c2ccccc12"
Result block: Low

Query block: Which category fits this record: "Nc1cccc(O)c1"
Result block: Low

Query block: Which category fits this record: "CCCOc1ccccc1C(=N)N"
Result block: Mid

Query block: Which category fits this record: "Nc1nncs1"
Result block: Mid

Query block: Which category fits this record: OC(c1ccccc1)c1ccc(Cl)cc1 (centres unmarked)
Result block: Low

Query block: Which category fits this record: "O=C(O)c1cc(-c2ccccc2)ccc1O"
Result block: Mid

Query block: Which category fits this record: "c1ccc2c3c([nH]c2c1)CNCC3"
Result block: Low

Query block: Which category fits this record: "Nc1ccccn1"
Result block: High

Query block: Which category fits this record: "O=C(O)COc1ccccc1"
Result block: High

###

Measured target: BMAL1 (Homo sapiens, UniProt O00327)
Parameters: PASB domain (residues 338–449); Protein thermal shift (PTS) fragment screen on recombinant human BMAL1(PASB), shift of melting temperature
Condition info: dTmB; binder
Assay endpoint: Bmal1(PASB) dTmB (°C)
Answer format: numeric, °C implied, no suffix.

>>> data_value("CCN(CC)CCNc1ccccc1")
-0.30
>>> data_value("Cc1cnc(C(=O)O)cn1")
0.14
>>> data_value("O=C(O)/C=C/c1cnc[nH]1")
-1.08
>>> data_value("O=C(c1ccccc1)c1ccccc1")
-0.99

Query block: Query Bmal1(PASB) dTmB for "S=c1[nH]cc[nH]1"
Result block: -1.25

Query block: Query Bmal1(PASB) dTmB for "COc1ccc(S(=O)(=O)N2CCNCC2)cc1"
Result block: -0.02

Query block: Query Bmal1(PASB) dTmB for "CN(C)C(=O)Oc1ccccc1"
Result block: -0.26

Query block: Query Bmal1(PASB) dTmB for "NC(=O)c1[nH]cnc1N"
Result block: -0.68

Query block: Query Bmal1(PASB) dTmB for O=C1c2nccnc2C(O)N1c1ccc(Cl)cn1 (centres unmarked)
Result block: -0.98

Query block: Query Bmal1(PASB) dTmB for "c1cncc(CN2CCNCC2)c1"
Result block: -0.77

Query block: Query Bmal1(PASB) dTmB for "O=c1ccc2ccccc2o1"
Result block: -0.26

Query block: Query Bmal1(PASB) dTmB for "O=c1[nH]snc1N1CCOCC1"
Result block: -0.14

###

Measured target: UniProt O00327
Design: PASB domain (residues 338–449); Protein thermal shift (PTS) fragment screen on recombinant human BMAL1(PASB), shift of melting temperature
Condition info: dTmB; binder
Label satisfied when Bmal1(PASB) dTmB is strictly below -0.2 °C; at or above that, label not satisfied.

>>> label_value("COc1ccc2nc[nH]c2c1")
"satisfied"
>>> label_value("C[C@H]1NC(=O)NC1=O")
"satisfied"

Query block: Lab note: confirm whether the reported Bmal1(PASB) dTmB for this compound is below -0.2 °C, equality not counting. compound: "CNCCc1c[nH]c2ccccc12"
Result block: satisfied

Query block: Lab note: confirm whether the reported Bmal1(PASB) dTmB for this compound is below -0.2 °C, equality not counting. compound: "O=C(c1ccc(C(F)(F)F)cc1)C1CCCCC1"
Result block: satisfied

Query block: Lab note: confirm whether the reported Bmal1(PASB) dTmB for this compound is below -0.2 °C, equality not counting. compound: "O=C1NCN(c2ccccc2)C12CCNCC2"
Result block: satisfied

Query block: Lab note: confirm whether the reported Bmal1(PASB) dTmB for this compound is below -0.2 °C, equality not counting. compound: "CCCC(=O)Nc1cccc(C(C)=O)c1"
Result block: satisfied

Query block: Lab note: confirm whether the reported Bmal1(PASB) dTmB for this compound is below -0.2 °C, equality not counting. compound: "O=C(CCCN1CCNCC1)c1ccc(F)cc1"
Result block: satisfied

Query block: Lab note: confirm whether the reported Bmal1(PASB) dTmB for this compound is below -0.2 °C, equality not counting. compound: CC(O)(C(=O)O)c1ccccc1 (stereo not drawn)
Result block: not satisfied

###

Measured target: BMAL1 (Homo sapiens, UniProt O00327)
Design: PASB domain (residues 338–449); Protein thermal shift (PTS) fragment screen on recombinant human BMAL1(PASB), shift of melting temperature
Condition info: dTmB; binder
Label condition met when Bmal1(PASB) dTmB >= -0.6 °C; otherwise condition not met.

# example entries with known answers
>>> label_value("CC(C)(C)NCC(O)COc1ccccc1C1CCCC1 (centres unmarked) [Prestw-Frag-0674, Compound 468]")
"condition not met"
>>> label_value("O=C(O)c1cccnc1Nc1ccccc1 [Prestw-Frag-1191, Compound 63]")
"condition met"
>>> label_value("c1ccc(C2CNCCO2)cc1 (centres unmarked) [Prestw-Frag-2958, Compound 322]")
"condition met"

Query block: Decide: is the reported value of Bmal1(PASB) dTmB for OC(c1ccccc1)c1ccccc1 [Prestw-Frag-1122, Compound 454] equal to or greater than -0.6 °C?
Result block: condition not met

Query block: Decide: is the reported value of Bmal1(PASB) dTmB for O=C(c1ccccc1)N1CCNCC1 [Prestw-Frag-3677, Compound 184] equal to or greater than -0.6 °C?
Result block: condition not met

Query block: Decide: is the reported value of Bmal1(PASB) dTmB for NCc1ncc[nH]1 [Prestw-Frag-3689, Compound 15] equal to or greater than -0.6 °C?
Result block: condition not met

###

Measured target: UniProt:O00327
Set-up: PASB domain (residues 338–449); Protein thermal shift (PTS) fragment screen on recombinant human BMAL1(PASB), shift of melting temperature
Condition info: dTmB; binder
Assay endpoint: Bmal1(PASB) dTmB (°C)
Answer format: numeric, °C implied, no suffix.

Would you please look over these solved cases?
>>> data_value("NCc1cscn1")
-1.05
>>> data_value("O=C(O)C(c1ccccc1)c1ccccc1")
-0.11
>>> data_value("N#CC1(c2ccc(F)cc2)CCCCC1")
-0.64
>>> data_value("Cc1cn(-c2cc(N)cc(C(F)(F)F)c2)cn1")
-2.09

Query block: Query Bmal1(PASB) dTmB for "CC(=O)c1ccc2c(c1)Nc1ccccc1S2"
Result block: 0.31

###

Measured target: BMAL1 (Homo sapiens, UniProt O00327)
Design: PASB domain (residues 338–449); Protein thermal shift (PTS) fragment screen on recombinant human BMAL1(PASB), shift of melting temperature
Condition info: dTmB; binder
Label y when Bmal1(PASB) dTmB is strictly below -0.3 °C; at or above that, label n.

# example entries with known answers
>>> label_value("COc1ccc(O)cc1O")
"n"
>>> label_value("c1ccc(-n2cccn2)cc1")
"n"
>>> label_value("CC(=O)C1CCNCC1")
"n"
>>> label_value("Cc1nc2ccccc2[nH]1")
"y"
>>> label_value("c1ccc(Cn2ccnc2)cc1")
"y"

Query block: Lab note: confirm whether the reported Bmal1(PASB) dTmB for this compound is below -0.3 °C, equality not counting. compound: "CC(=O)Nc1ncc([N+](=O)[O-])s1"
Result block: n

Query block: Lab note: confirm whether the reported Bmal1(PASB) dTmB for this compound is below -0.3 °C, equality not counting. compound: "Nc1ncns1"
Result block: y

Query block: Lab note: confirm whether the reported Bmal1(PASB) dTmB for this compound is below -0.3 °C, equality not counting. compound: "CCN(CC)CCOC(=O)C1(c2ccccc2)CCCC1"
Result block: y

Query block: Lab note: confirm whether the reported Bmal1(PASB) dTmB for this compound is below -0.3 °C, equality not counting. compound: "Cn1c(N)nc2ccccc21"
Result block: n

Query block: Lab note: confirm whether the reported Bmal1(PASB) dTmB for this compound is below -0.3 °C, equality not counting. compound: "CN1CCNCC1=O"
Result block: n
